Reported Kd by item:
- System: Fc region of human immunoglobulin (human)
- Assay Summary: SPR, Fc on CM5 chip, pH 7.4, 1:1 Langmuir
Answer in nM, number only, no unit symbol.

Q: Returns the measured Kd for the input binder. Input: M-PG07 (designed binder) MDTYKLILNGKTLKGETTTEAVDAATAEKVFKQYANEHGVDGEWTYDPETKTFTVTE
Ans: 290

Could you now look at the following binder, please?
Q: Returns the measured Kd for the input binder. Input: M-PG19 (designed binder) MDTYKLILNGKTLKGETTTEAVDAATAEKVFKHYANEHGVHGHWTYDPETKTFTVTE
Ans: 43
